These entries and their values trace back to ChEMBL document CHEMBL1136082.

Assay remarks: In vitro metabolic stability determined after 30 min of incubation in rat hepatic microsomes
Type: ADME
Condition label: liver microsomes, read-out: Metabolic stability
Listed below: remaining at 0.5 h values for each entry.
Write down the numeric answer in % and omit the unit.

Example cases with answers are listed next.
>>> measurement("NC1CCN(C(=O)[C@](O)(c2ccccc2)[C@@H]2CCC(F)(F)C2)CC1")
100
>>> measurement("NCC1CCN(C(=O)[C@](O)(c2ccccc2)C2CCCC2)CC1")
72
>>> measurement("Nc1cccc(CN2CCC(NC(=O)[C@](O)(c3ccccc3)[C@@H]3CCC(F)(F)C3)CC2)n1")
46
>>> measurement("NCCC1CCN(C(=O)[C@](O)(c2ccccc2)[C@@H]2CCC(F)(F)C2)CC1")
100

Query: Recorded remaining at 0.5 h for NC1CCN(C(=O)[C@](O)(c2ccccc2)C2CCCC2)CC1 , please?
Response: 40

Query: And NCC1CCN(C(=O)[C@](O)(c2ccccc2)[C@@H]2CCC(F)(F)C2)CC1 ?
Response: 98

Query: Quick one: NCCC1CCN(C(=O)[C@](O)(c2ccccc2)C2CCCC2)CC1
Response: 77
